Each recorded value in this set is attributed to ChEMBL document CHEMBL1961873.

Biological target: Rhodopsin kinase GRK7 (Homo sapiens) (UniProt Q8WTQ7);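 note: mean percent inhibition of GRK7, profiled as part of the GSK PKIS screen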
Sequence (whole entry): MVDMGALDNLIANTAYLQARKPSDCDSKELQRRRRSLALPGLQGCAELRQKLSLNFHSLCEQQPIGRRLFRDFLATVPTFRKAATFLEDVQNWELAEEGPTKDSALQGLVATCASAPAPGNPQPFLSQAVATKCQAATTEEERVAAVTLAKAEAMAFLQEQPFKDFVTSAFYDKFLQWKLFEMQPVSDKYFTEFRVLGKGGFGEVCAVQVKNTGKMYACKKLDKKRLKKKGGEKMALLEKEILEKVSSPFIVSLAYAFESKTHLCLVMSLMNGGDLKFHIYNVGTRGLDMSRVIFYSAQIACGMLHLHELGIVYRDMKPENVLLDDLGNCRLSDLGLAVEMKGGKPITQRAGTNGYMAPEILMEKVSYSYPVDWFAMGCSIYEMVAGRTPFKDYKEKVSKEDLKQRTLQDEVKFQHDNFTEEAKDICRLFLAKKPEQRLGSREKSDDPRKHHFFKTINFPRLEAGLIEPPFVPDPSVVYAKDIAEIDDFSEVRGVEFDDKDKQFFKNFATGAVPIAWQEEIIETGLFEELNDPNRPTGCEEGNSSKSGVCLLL
Details: at 1 µM
molecules and their reported inhibition

- lineNotation: "O=C(Nc1n[nH]c2cc(-c3ccc(F)cc3)ccc12)C1CC1"
  inhibition [%]: 7.25
- lineNotation: "CC(=O)NCc1cccc(C#Cc2cncnc2Nc2ccc(OCc3cccc(F)c3)c(Cl)c2)c1"
  inhibition [%]: 7.96
- lineNotation: "COC(=O)c1sc(-n2cnc3cc(OC)c(OC)cc32)cc1OCc1ccccc1C(F)(F)F"
  inhibition [%]: 7.64
- lineNotation: "CS(=O)(=O)CCNCc1ccc(-c2ccc3ncnc(Nc4ccc(OCc5ccccc5)c(C(F)(F)F)c4)c3c2)o1"
  inhibition [%]: 3.42
- lineNotation: "COc1cc(/C=N/Nc2ncnc3[nH]ncc23)ccc1O"
  inhibition [%]: 5.07
- lineNotation: "COc1cc(N2CCN(C(C)C)CC2)ccc1Nc1nc(Nc2ccc(F)cc2C(N)=O)c2cc[nH]c2n1"
  inhibition [%]: 10.1
- lineNotation: "CC(C)COC(=O)c1ccc2c(c1)/C(=C/Nc1ccc(S(N)(=O)=O)cc1)C(=O)N2"
  inhibition [%]: 9.41
- lineNotation: "N#Cc1c(NC(=O)c2ccc(F)cc2)sc2c1CCCC2"
  inhibition [%]: 4.43
- lineNotation: "CCN(CC)S(=O)(=O)c1ccc(OC)c(Nc2ncc(-c3ccccc3)o2)c1"
  inhibition [%]: -3.96
- lineNotation: "COc1ccc(-c2nn3ncccc3c2-c2ccnc(Nc3ccc4c(c3)OCCO4)n2)cc1"
  inhibition [%]: 2.81
- lineNotation: "CCOc1ccc2c(-c3ccnc(Nc4cccc(C(F)(F)F)c4)n3)cnn2n1"
  inhibition [%]: 0.86
- lineNotation: "CCn1cc(-c2ccnc3[nH]ccc23)c(-c2cccc(NC(=O)Nc3ccc(OCc4ccccc4)cc3)c2)n1"
  inhibition [%]: -2.29
- lineNotation: "NS(=O)(=O)c1ccc(Nc2ncc(-c3ccccc3)o2)cc1"
  inhibition [%]: 2.99
- lineNotation: "COc1cc(Nc2nccc(Nc3ccc4c(C)n[nH]c4c3)n2)cc(OC)c1OC"
  inhibition [%]: -1.95
- lineNotation: "CCn1c(-c2nonc2N)nc2cnc(Oc3cccc(NC(=O)c4ccc(N(C)C)cc4)c3)cc21"
  inhibition [%]: 4.11
- lineNotation: "CCNC(=O)O[C@H]1CN[C@H](C#Cc2cc3ncnc(Nc4ccc(OCc5cccc(F)c5)c(Cl)c4)c3s2)C1"
  inhibition [%]: 2.31
- lineNotation: "CNC(=O)c1cccc(C#Cc2cncnc2Nc2ccc(OCc3cccc(F)c3)c(Cl)c2)c1"
  inhibition [%]: -1.25
- lineNotation: "CCCN1CCC(c2ccc(Nc3nc(Nc4cc(F)ccc4C(N)=O)c4cc[nH]c4n3)c(OC)c2)CC1"
  inhibition [%]: 45
- lineNotation: "O=S(=O)(CCNCc1ccc(-c2ccc3ncnc(Nc4ccc(OCc5cccc(F)c5)c(Cl)c4)c3c2)o1)c1ccccc1"
  inhibition [%]: 2.27
- lineNotation: "CCn1c(-c2nonc2N)nc2ccccc21"
  inhibition [%]: -9.67
- lineNotation: "Cc1ccc2c(-c3ccnc(Nc4ccccc4)n3)c(-c3ccc(F)cc3)nn2n1"
  inhibition [%]: -6.29
- lineNotation: "COC(=O)Nc1nc2ccc(S(=O)(=O)c3ccc(NC(=O)Nc4cc(C(F)(F)F)ccc4F)cc3)cc2[nH]1"
  inhibition [%]: 1.96
